src = patent US20120245137A1

Molecular target: CAv1.2 (Homo sapiens, UniProt Q13936)
Test: FLIPR data, CAv1.2 channel blocking (Table 6)
Type: cell-based
Details: closed state, read-out: CAv1.2 IC50 Closed
measuredAttribute: IC50

Consider the reported IC50 for these compounds:
compound | IC50
CC(C)([C@H]1C[C@H](NS(=O)(=O)c2ccc(F)c(C(F)(F)F)c2)C1)S(=O)(=O)c1cc(F)cc(C(F)(F)F)c1 | 7.75 µM
CC(C)(C1CC(CNC(=O)c2ccc(C(F)(F)F)cc2S(C)(=O)=O)C1)S(=O)(=O)c1cccc(C(F)(F)F)c1 (centres unmarked) | ≥ 10 µM

Input "Cn1nc(C(F)(F)F)cc1C(=O)N[C@H]1C[C@@H](CC(C)(C)S(=O)(=O)c2cccc(C(F)(F)F)c2)C1" , output reported IC50.
5.36 µM

Input "CC(C)(C[C@H]1C[C@@H](NC(=O)CC2(N)CCCCC2)C1)S(=O)(=O)c1cccc(C(F)(F)F)c1" , output reported IC50.
8.86 µM

Input "O=C(NC[C@H]1C[C@H](S(=O)(=O)c2cccc(OC(F)(F)F)c2)C1)c1ccc(C(F)(F)F)cc1" , output reported IC50.
7.51 µM

---

Biological target: human α1G T-type channels (Homo sapiens)
Sequence (O43497 whole entry): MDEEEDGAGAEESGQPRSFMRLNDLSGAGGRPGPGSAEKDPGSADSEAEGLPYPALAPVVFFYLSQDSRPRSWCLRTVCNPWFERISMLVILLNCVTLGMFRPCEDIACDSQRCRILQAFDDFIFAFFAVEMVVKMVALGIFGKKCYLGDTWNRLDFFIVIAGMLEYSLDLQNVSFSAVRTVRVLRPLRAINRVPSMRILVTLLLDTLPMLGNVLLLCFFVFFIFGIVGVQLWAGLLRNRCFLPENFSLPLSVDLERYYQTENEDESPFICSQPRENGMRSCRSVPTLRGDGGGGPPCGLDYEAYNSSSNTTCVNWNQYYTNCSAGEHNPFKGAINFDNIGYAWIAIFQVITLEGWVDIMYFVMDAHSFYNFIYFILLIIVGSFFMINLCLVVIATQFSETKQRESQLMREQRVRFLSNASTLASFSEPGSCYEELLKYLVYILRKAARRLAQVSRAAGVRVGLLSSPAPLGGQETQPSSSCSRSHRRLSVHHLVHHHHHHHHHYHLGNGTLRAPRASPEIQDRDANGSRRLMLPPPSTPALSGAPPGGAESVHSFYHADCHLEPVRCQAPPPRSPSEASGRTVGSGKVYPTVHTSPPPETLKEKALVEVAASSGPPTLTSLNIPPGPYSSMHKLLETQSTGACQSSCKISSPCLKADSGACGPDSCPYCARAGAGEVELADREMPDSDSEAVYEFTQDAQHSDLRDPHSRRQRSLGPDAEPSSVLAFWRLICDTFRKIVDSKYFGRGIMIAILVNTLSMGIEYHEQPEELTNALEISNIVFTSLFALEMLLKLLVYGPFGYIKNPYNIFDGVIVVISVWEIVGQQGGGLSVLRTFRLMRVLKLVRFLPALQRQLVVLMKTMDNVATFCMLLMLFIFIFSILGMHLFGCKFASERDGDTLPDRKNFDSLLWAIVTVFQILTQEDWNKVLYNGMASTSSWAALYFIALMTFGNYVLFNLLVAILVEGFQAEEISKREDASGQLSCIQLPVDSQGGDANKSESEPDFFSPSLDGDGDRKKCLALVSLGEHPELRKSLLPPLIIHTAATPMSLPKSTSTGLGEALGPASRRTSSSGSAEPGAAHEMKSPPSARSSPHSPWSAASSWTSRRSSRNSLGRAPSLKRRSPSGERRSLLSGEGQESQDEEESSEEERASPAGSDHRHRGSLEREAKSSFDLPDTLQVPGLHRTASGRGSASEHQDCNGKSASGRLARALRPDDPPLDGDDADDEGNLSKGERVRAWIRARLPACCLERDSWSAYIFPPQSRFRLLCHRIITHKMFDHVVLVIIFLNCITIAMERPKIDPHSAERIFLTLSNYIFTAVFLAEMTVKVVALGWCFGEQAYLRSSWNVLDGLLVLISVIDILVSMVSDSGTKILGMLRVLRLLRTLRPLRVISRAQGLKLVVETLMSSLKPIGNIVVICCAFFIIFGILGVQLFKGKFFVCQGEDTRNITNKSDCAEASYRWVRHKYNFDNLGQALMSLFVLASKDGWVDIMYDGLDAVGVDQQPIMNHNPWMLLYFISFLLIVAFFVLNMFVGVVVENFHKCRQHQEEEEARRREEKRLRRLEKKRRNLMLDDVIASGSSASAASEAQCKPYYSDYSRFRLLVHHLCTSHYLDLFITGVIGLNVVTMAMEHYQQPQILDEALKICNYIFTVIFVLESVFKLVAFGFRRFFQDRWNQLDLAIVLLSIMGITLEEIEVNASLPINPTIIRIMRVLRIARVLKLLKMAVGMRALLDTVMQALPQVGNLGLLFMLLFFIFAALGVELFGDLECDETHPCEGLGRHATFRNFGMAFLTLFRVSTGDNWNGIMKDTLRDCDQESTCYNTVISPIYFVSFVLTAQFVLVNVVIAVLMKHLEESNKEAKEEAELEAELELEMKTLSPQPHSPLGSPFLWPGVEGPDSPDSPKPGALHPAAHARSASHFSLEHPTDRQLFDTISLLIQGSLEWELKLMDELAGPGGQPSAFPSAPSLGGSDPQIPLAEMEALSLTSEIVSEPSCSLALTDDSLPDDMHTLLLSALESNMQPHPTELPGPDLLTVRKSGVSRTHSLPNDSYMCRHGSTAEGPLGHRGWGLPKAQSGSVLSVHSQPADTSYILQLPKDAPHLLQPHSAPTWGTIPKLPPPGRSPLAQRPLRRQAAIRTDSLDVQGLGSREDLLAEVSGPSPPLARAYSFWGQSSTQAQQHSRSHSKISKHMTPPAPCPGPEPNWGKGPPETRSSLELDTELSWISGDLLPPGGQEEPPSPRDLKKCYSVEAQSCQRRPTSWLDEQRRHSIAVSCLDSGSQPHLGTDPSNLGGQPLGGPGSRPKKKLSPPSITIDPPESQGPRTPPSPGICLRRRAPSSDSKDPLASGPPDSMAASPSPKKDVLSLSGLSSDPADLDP
Experiment: T-type calcium channel block, whole cell patch clamp, α1G
Settings: HEK cells stably expressing human α1G; mainly non-inactivated protocol; values above 10,000 nM represented as 10000
measuredAttribute: pIC50
Formally, pIC50 is defined as -log10 of the concentration c, with c in mol/L.

Output reported pIC50 of the molecule Cc1cccc(C(=O)NCC(C)(C)S(=O)(=O)c2cccc(C(F)(F)F)c2)n1 [Compound 485] on human α1G T-type channels (Homo sapiens).
6.15

Output reported pIC50 of the molecule O=C(N[C@H]1CC[C@H](S(=O)(=O)c2cccc(C(F)(F)F)c2)CC1)c1ccc(Cl)c(C(F)(F)F)c1 [Compound 125] on human α1G T-type channels (Homo sapiens).
5.54

Output reported pIC50 of the molecule CC1(S(=O)(=O)c2cccc(C(F)(F)F)c2)CCC(NC(=O)CNC2CCCCC2)CC1 (stereo not shown) [Compound 17] on human α1G T-type channels (Homo sapiens).
5.63

Output reported pIC50 of the molecule O=C(N[C@H]1CC[C@@H](S(=O)(=O)c2cc(F)cc(C(F)(F)F)c2)CC1)c1ccc(Cl)c(OC(F)(F)F)c1 [Compound 322] on human α1G T-type channels (Homo sapiens).
5.49

Output reported pIC50 of the molecule CC1(CNC(=O)c2cc(F)cc(Cl)c2)CCC(F)(S(=O)(=O)c2cccc(C(F)(F)F)c2)CC1 (stereo not shown) [Compound 154] on human α1G T-type channels (Homo sapiens).
5.44

---

Target: UniProt Q13936
Test: L-type (CAv1.2) channel blocking, FLIPR data (Table 6)
Assay type: cell-based
Details: ratio closed/inact.
Here the recorded CAv1.2 IC50 Ratio closed/inact. is given for each entry.
Give the figure by itself; no unit, no explanation.

Consider the reported CAv1.2 IC50 Ratio closed/inact. for these molecules:
mol | valueReported
CC(C)([C@H]1C[C@@H](CNc2ccc(F)c(Cl)c2)C1)S(=O)(=O)c1cccc(C(F)(F)F)c1 | 4.9
CC(C)([C@H]1C[C@@H](C(=O)Nc2ccc(C(F)(F)F)cn2)C1)S(=O)(=O)c1cccc(C(F)(F)F)c1 | 1.9
CC(C)([C@H]1C[C@H](C(=O)Nc2ccc(C(F)(F)F)cc2Cl)C1)S(=O)(=O)c1cccc(C(F)(F)F)c1 | 4.6

Input "O=C(c1ccc(OCC(F)(F)F)nc1)N1CC(CS(=O)(=O)c2cc(F)cc(C(F)(F)F)c2)C1" , output reported CAv1.2 IC50 Ratio closed/inact..
1.1

Input "CC(C)([C@H]1C[C@@H](C(=O)Nc2ccc(C(F)(F)F)nc2)C1)S(=O)(=O)c1cccc(C(F)(F)F)c1" , output reported CAv1.2 IC50 Ratio closed/inact..
2.3
